assay: Clearance in monkey after iv administration; settings: macaca, in vivo
Listed next: entries and their corresponding clearance.

COMPOUND	clearance
CCC1=C[C@@H]2CN(C1)Cc1c([nH]c3ccccc13)[C@@](C(=O)OC)(c1cc3c(cc1OC)N(C)[C@H]1[C@@](O)(C(=O)OC)[C@H](OC(C)=O)[C@]4(CC)C=CCN5CC[C@]31[C@@H]54)C2	23.6 mL/min/kg
COc1ccc(Cl)cc1[C@]1(F)C(=O)Nc2cc(C(F)(F)F)ccc21	40.2 mL/min/kg
CCCN1CCC[C@@H](c2cccc(S(C)(=O)=O)c2)C1	33.3 mL/min/kg
CC#C[C@]1(O)CC[C@H]2[C@@H]3CCC4=CC(=O)CCC4=C3[C@@H](c3ccc(N(C)C)cc3)C[C@@]21C	24.2 mL/min/kg
OC(CCN1CCCCC1)(c1ccccc1)C1CC2C=CC1C2 (centres undefined)	21.9 mL/min/kg
Cc1ncc2n1-c1ccc(Cl)cc1C(c1ccccc1F)=NC2	24.2 mL/min/kg
CCN1CCC[C@H]1CNC(=O)c1c(OC)ccc(Br)c1OC [REMOXIPRIDE]	11.8 mL/min/kg
COc1ccc([C@H](CC(=O)O)N2CCN(CCCc3ccc4c(n3)NCCC4)C2=O)cn1	9 mL/min/kg
Cc1cc(C)c(/C=C2\C(=O)Nc3ccccc32)[nH]1	25.7 mL/min/kg
C[C@H]1NCc2cc(-c3ccc4c(=O)c(C(=O)O)cn(C5CC5)c4c3OC(F)F)ccc21	3.4 mL/min/kg
CN(C)CCCN1c2ccccc2Sc2ccc(Cl)cc21	24.6 mL/min/kg
CCOc1cc(Cc2cnc(N)nc2N)cc(OCC)c1-n1cccc1 [EPIROPRIM]	30.6 mL/min/kg
COc1ccc([C@@H]2Sc3ccccc3N(CCN(C)C)C(=O)[C@@H]2OC(C)=O)cc1	34.5 mL/min/kg
CC1COc2c(N3CCN(C)CC3)c(F)cc3c(=O)c(C(=O)O)cn1c23 (centres undefined)	7.5 mL/min/kg

* * *

assay: Volume of distribution at steady state in dog after iv administration; details: in vivo
Short version: Vd at least 20 L/kg is Satisfied, less is Not satisfied.

> print(dat)
                                   molecule    class.label
1  COc1ccc([C@@H]2Sc3ccccc3N(CCN(C)C)C(=O)[C@@H]2OC(C)=O)cc1      Satisfied
2  CC#C[C@]1(O)CC[C@H]2[C@@H]3CCC4=CC(=O)CCC4=C3[C@@H](c3ccc(N(C)C)cc3)C[C@@]21C  Not satisfied
3  O=C(CCCN1CCC(O)(c2ccc(Cl)cc2)CC1)c1ccc(F)cc1      Satisfied
4    Cc1ncc2n1-c1ccc(Cl)cc1C(c1ccccc1F)=NC2  Not satisfied
5  CCOc1cc(Cc2cnc(N)nc2N)cc(OCC)c1-n1cccc1 [EPIROPRIM]  Not satisfied
6  OC(CCN1CCCCC1)(c1ccccc1)C1CC2C=CC1C2 (centres undefined)  Not satisfied
7  CC1COc2c(N3CCN(C)CC3)c(F)cc3c(=O)c(C(=O)O)cn1c23 (centres undefined)  Not satisfied
8  CCN1CCC[C@H]1CNC(=O)c1c(OC)ccc(Br)c1OC [REMOXIPRIDE]  Not satisfied
9          CN(C)CCCN1c2ccccc2Sc2ccc(Cl)cc21  Not satisfied

Data origin, for the record: ChEMBL document CHEMBL1614630
